Origin of the recorded values: patent US20240018252A1

Molecular target: T1, human CD3 (huCD3ed) (human, UniProt P07766 23-126; P04234 22-105)
T1 construct: Soluble analyte in SPR; The delta chain is inferred from the label 'ed'; also called hCD3ed; hCD3
T1 sequence (P07766 23-126, chain 1 of 2): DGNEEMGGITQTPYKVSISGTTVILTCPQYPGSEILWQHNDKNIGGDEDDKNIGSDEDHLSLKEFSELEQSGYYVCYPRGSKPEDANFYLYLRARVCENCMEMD
T1 sequence (P04234 22-105, chain 2 of 2): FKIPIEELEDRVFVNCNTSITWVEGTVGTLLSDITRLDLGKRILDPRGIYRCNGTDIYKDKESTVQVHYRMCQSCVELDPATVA
Assay: SPR (ProteOn XPR36), IgG amine-coupled on chip, huCD3ed as analyte, 37 C
endpointLabel: T½ (s)
Report the value in s with no unit label.

Field: example entries. Status: answers known.
INSERT INTO assay_data (binder, endpointlabel, resultnumber) VALUES
  ('h2B4-VH-yaps VL_TK (antibody, V domains shown, Anti-CD3) VH: EVQLVESGGGLVQPGGSLRLSCAASGFTFSDYYMTWVRQAPGKGLEWVAFIRNRARGYTSDYAPSVKGRFTISRDNAKNSLYLQMNSLRAEDTAVYYCARDRPSYYVLDYWGQGTTVTVSS VL: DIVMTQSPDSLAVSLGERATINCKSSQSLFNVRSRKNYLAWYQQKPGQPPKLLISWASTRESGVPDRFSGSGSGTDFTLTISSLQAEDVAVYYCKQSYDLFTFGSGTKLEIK', 'T½', 30),
  ('h2B4-VH-wt VL_TK (antibody, V domains shown, Anti-CD3; also called h2B4-TK) VH: EVQLVESGGGLVQPGGSLRLSCAASGFTFSDYYMTWVRQAPGKGLEWVAFIRNRARGYTSDHNASVKGRFTISRDNAKNSLYLQMNSLRAEDTAVYYCARDRPSYYVLDYWGQGTTVTVSS VL: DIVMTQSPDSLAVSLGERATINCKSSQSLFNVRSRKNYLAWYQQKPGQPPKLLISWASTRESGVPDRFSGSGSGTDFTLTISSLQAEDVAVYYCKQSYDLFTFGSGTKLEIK', 'T½', 49.8),
  ('h2B4-VH-yads VL_TK (antibody, V domains shown, Anti-CD3) VH: EVQLVESGGGLVQPGGSLRLSCAASGFTFSDYYMTWVRQAPGKGLEWVAFIRNRARGYTSDYADSVKGRFTISRDNAKNSLYLQMNSLRAEDTAVYYCARDRPSYYVLDYWGQGTTVTVSS VL: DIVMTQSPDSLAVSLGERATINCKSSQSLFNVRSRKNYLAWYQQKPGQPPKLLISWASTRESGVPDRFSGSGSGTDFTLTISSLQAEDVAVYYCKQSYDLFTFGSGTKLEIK', 'T½', 47.4),
  ('h2B4-VH-hnps VL_TK (antibody, V domains shown, Anti-CD3; also called h2B4-hnpsTK) VH: EVQLVESGGGLVQPGGSLRLSCAASGFTFSDYYMTWVRQAPGKGLEWVAFIRNRARGYTSDHNPSVKGRFTISRDNAKNSLYLQMNSLRAEDTAVYYCARDRPSYYVLDYWGQGTTVTVSS VL: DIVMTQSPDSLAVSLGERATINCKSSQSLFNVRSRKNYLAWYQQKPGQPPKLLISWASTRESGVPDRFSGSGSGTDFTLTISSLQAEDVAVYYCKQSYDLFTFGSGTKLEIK', 'T½', 43.2),
  ('h2B4-VH-yaes VL_TK (antibody, V domains shown, Anti-CD3; also called h2B4-yaesTK) VH: EVQLVESGGGLVQPGGSLRLSCAASGFTFSDYYMTWVRQAPGKGLEWVAFIRNRARGYTSDYAESVKGRFTISRDNAKNSLYLQMNSLRAEDTAVYYCARDRPSYYVLDYWGQGTTVTVSS VL: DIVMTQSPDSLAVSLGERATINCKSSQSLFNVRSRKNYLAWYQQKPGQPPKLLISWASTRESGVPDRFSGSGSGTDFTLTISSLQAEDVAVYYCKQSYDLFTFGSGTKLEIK', 'T½', 30);

**Q:** Endpoint output: T½ of h2B4 (antibody, V domains shown, Anti-CD3; tested as human IgG immobilised on the chip; also called h2B4-1d) VH: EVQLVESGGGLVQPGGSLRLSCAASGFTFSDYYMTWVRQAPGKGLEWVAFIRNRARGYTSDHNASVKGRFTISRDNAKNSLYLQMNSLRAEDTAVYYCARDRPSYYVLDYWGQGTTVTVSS VL: DIVMTQSPDSLAVSLGERATINCTSSQSLFNVRSRKNYLAWYQQKPGQPPKLLISWASTRESGVPDRFSGSGSGTDFTLTISSLQAEDVAVYYCKQSYDLFTFGSGTKLEIK . Value?
**A:** 50.4
